biological target: human alpha 7-wt nAChR (Homo sapiens, UniProt P36544); construct: expressed in transfected cells; assay: Ca2+ flux imaging (FDSS) (Protocol B); type: cell-based; settings: efficacy of 100 μM choline defined as 100% in the absence of a PAM; read-out: a7-PAM-G_[33]_Eff_Curve_FI % Efficacy
endpoint: Emax (%)
Please give a number only; it is taken to be in %.

Kindly note the recorded Emax for Cc1cc(C(=O)NCc2nc(N3C[C@@H](C)O[C@@H](C)C3)sc2-c2cc(C)nc(C)c2)on1 , which is 927

Emax for Cc1cc(-c2sc(N3C[C@@H](C)O[C@@H](C)C3)nc2CNC(=O)CC(C)C)cc(C)n1 is 827

Reported Emax for Cc1cc(-c2sc(N3CCOCC3)nc2CNC(=O)CC2CC2)cc(C)n1 was 980

GET /value?item= Cc1cc(-c2sc(N3C[C@@H](C)O[C@@H](C)C3)nc2CNC(=O)[C@H]2CCOC2)cc(C)n1 &field=Emax returns 409

More entries:
Briefly, Emax measured for Cc1cc(-c2sc(N3C[C@@H](C)O[C@@H](C)C3)nc2CNC(=O)c2nc(C)oc2C)cc(C)n1 : 464

# Emax (molecule: Cc1cc(-c2sc(N3CCO[C@H](C(F)(F)F)C3)nc2CNC(=O)CC2CC2)cc(C)n1 ) is 670

Looking up Cc1cc(-c2sc(N3C[C@@H](C)O[C@@H](C)C3)nc2CNC(=O)c2sccc2C)cc(C)n1 , I found its Emax recorded as 894

----------
target: human alpha 7-wt nAChR-expressing GH4C1 cells (Homo sapiens, UniProt P36544); construct: expressed in transfected cells; assay: Patch-clamp current recording (whole-cell voltage-clamp, PAM type classification); type: cell-based; design: key: Type 0 compounds minimally change the effect size of the current elicited by 1 mM choline.; Type 1 compounds enhance the effect size of the current elicited by 1 mM choline but minimally alter the kinetics of the receptor.; Type 2 compounds enhance the effect size of the current elicited by 1 mM choline while reducing the rate and/or the extent of desensitization.; Type 3 compounds enhance the effect size of the current elicited by 1 mM choline. When tested at higher concentrations up to 10 μM they completely inhibit desensitization; Type 4 compounds allow for an initial desensitization of the receptor followed by a re-opening of the receptor during agonist application; details: 1 mM choline
Sequence (P36544 23-502): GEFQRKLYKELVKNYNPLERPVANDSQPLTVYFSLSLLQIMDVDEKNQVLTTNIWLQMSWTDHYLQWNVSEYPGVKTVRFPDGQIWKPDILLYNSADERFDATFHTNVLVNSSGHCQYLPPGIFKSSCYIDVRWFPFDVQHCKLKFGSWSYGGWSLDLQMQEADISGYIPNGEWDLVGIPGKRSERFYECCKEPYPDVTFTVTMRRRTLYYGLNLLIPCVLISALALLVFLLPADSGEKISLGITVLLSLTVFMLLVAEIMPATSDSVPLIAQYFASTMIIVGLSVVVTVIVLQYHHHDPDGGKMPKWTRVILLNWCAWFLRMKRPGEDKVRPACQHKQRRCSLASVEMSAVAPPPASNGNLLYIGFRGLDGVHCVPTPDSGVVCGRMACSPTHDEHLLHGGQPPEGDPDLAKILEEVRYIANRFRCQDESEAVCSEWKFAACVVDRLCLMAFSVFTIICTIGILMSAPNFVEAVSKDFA
endpoint: PAM_Type PAM type
Output: the number by itself.

For record Cc1cc(-c2sc(N3C[C@@H](C)O[C@@H](C)C3)nc2CNC(=O)c2ccc(F)cc2)cc(C)n1 the listed PAM_Type PAM type is 2

Record Cc1cc(F)ccc1C(=O)NCc1nc(N2C[C@@H](C)O[C@@H](C)C2)sc1-c1ccnc(C(F)(F)F)c1 . Reported PAM_Type PAM type: 1

// recorded PAM_Type PAM type for Cc1cc(-c2sc(N3CCOC(C)C3)nc2CNC(=O)CC2CC2)cc(C)n1 (single isomer, unassigned) [Compound 75] : 2

# compound Cc1cc(-c2sc(N3C[C@@H](C)O[C@@H](C)C3)nc2CNC(=O)c2cccc(F)c2F)cc(C)n1 ; its PAM_Type PAM type = 1

The compound identified as Cc1cc(-c2sc(N3CCOC(C)C3)nc2CNC(=O)C(C)C)cc(C)n1 (single isomer, unassigned) [Compound 76] registered its PAM_Type PAM type at 2

For Cc1cc(-c2sc(N3C[C@@H](C)O[C@@H](C)C3)nc2CNC(=O)CC(F)(F)F)cc(C)n1 the compound record lists PAM_Type PAM type as 1

PAM_Type PAM type reported for this compound Cc1cc(-c2sc(N3C[C@@H](C)O[C@@H](C)C3)nc2CNC(=O)c2conc2C)cc(C)n1 : 2

Entry under test: Cc1ccc(-c2sc(N3C[C@@H](C)O[C@@H](C)C3)nc2CNC(=O)c2cc(C)on2)cn1 . Its PAM_Type PAM type was 0

PAM_Type PAM type reading for Cc1cc(-c2sc(N3C[C@@H](C)O[C@@H](C)C3)nc2CNC(=O)c2cc(C)on2)cc(C)n1 : 1

PAM_Type PAM type in this record for Cc1cc(C(=O)NCc2nc(N3C[C@@H](C)O[C@@H](C)C3)sc2-c2cc(C)nc(C)c2)on1 : 2

Documented PAM_Type PAM type of Cc1cc(-c2sc(N3C[C@@H](C)O[C@@H](C)C3)nc2CNC(=O)c2ncsc2C)cc(C)n1 : 0

Looking up COc1cc(-c2sc(N3C[C@@H](C)O[C@@H](C)C3)nc2CNC(=O)c2cccc(F)c2)cc(C)n1 , I see its PAM_Type PAM type listed as 0

Record COc1cc(-c2sc(N3C[C@@H](C)O[C@@H](C)C3)nc2CNC(=O)CC2CC2)cc(C)n1 , field PAM_Type PAM type: 2

PAM_Type PAM type for Cc1cc(-c2sc(N3C[C@@H](C)O[C@@H](C)C3)nc2CNC(=O)c2ccc(F)c(F)c2F)cc(C)n1 is 2

Looking up Cc1cc(-c2sc(N3CCOC(C(F)(F)F)C3)nc2CNC(=O)c2conc2C)cc(C)n1 (stereo not drawn) , I found its PAM_Type PAM type recorded as 2

Reported PAM_Type PAM type for Cc1cc(-c2sc(N3C[C@@H](C)O[C@@H](C)C3)nc2CNC(=O)CC2CC2)cc(C)n1 was 2

Item: Cc1cc(-c2sc(N3C[C@@H](C)O[C@@H](C)C3)nc2CNC(=O)c2ccc(Cl)cc2Cl)cc(C)n1 | PAM_Type PAM type: 2

----------
Target: human alpha 7-wt nAChR (Homo sapiens, UniProt P36544)
Construct: expressed in transfected cells
Assay: Ca2+ flux imaging (FDSS) (Protocol B)
Type: cell-based
Conditions: potentiation of 100 μM choline; compounds 0.01 μM to 30 μM; read-out: a7-PAM-G_[33]_pEC50 pEC50 (converted)
Description: Ca^2+ Flux Imaging (FDSS) (Protocol B) […] PAM activity was detected in real time by applying the compounds to be tested to the loaded cells along with an alpha 7 nicotinic receptor agonist during constant monitoring of cellular fluorescence in a FDSS. […] A control response to choline was calculated on each plate from the difference in peak in fluorescence in wells receiving either choline or assay buffer alone. […]
# EC50 per entry
All answers are understood in nM, so give the number only.

// EC50 value for Cc1cc(-c2sc(N3C[C@@H](C)O[C@@H](C)C3)nc2CNC(=O)c2conc2C)cc(C2CC2)n1 : 81.3

Sure, the documented EC50 for CCCC(=O)NCc1nc(N2C[C@@H](C)O[C@@H](C)C2)sc1-c1cc(C)nc(C)c1 is 102

Sure, the documented EC50 for Cc1cc(-c2sc(N3C[C@@H](C)O[C@@H](C)C3)nc2CNC(=O)CC2CC2)ccn1 is 562

Next:
Entry Cc1cc(-c2sc(N3C[C@@H](C)O[C@@H](C)C3)nc2CNC(=O)c2conc2C)cc(C)n1 , EC50 reported as 380

----------
molecular target: human alpha 7-wt nAChR (Homo sapiens); construct: expressed in transfected cells; assay: Ca2+ flux imaging (FDSS) (Protocol B); type: cell-based; settings: efficacy of 100 μM choline defined as 100% in the absence of a PAM; read-out: a7-PAM-G_[33]_Eff_Curve_FI % Efficacy
endpoint: Emax (%)
Your answer should be a plain number; it is taken to be in %.

Query Cc1ccc(-c2sc(N3C[C@@H](C)O[C@@H](C)C3)nc2CNC(=O)c2cc(C)on2)cn1 on human alpha 7-wt nAChR (Homo sapiens); Emax returned: 430

O=C(NCc1nc(N2CCOCC2)sc1-c1ccncc1)C1CC1 tested on human alpha 7-wt nAChR (Homo sapiens) gave Emax: 259

The molecule Cc1cc(-c2sc(N3CCO[C@@H](C(F)(F)F)C3)nc2CNC(=O)CC2CC2)cc(C)n1 on human alpha 7-wt nAChR (Homo sapiens): Emax was 995

Tested system human alpha 7-wt nAChR (Homo sapiens); Emax recorded for Cc1cc(-c2sc(N3C[C@@H](C)O[C@@H](C)C3)nc2CNC(=O)c2ncoc2C)cc(C)n1 was 509

Observed Emax on human alpha 7-wt nAChR (Homo sapiens), entry Cc1cc(-c2sc(N3C[C@@H](C)O[C@@H](C)C3)nc2CNC(=O)c2cc(C)n(C)n2)cc(C)n1 , equals 462

Item Cc1cc(-c2sc(N3C[C@@H](C)O[C@@H](C)C3)nc2CNC(=O)CC2CC2)cc(C)n1 was tested on human alpha 7-wt nAChR (Homo sapiens); the reported Emax is 796

Given the molecule Cc1cc(-c2sc(N3C[C@@H](C(F)(F)F)O[C@@H](C)C3)nc2CNC(=O)CC2CC2)cc(C)n1 and test system human alpha 7-wt nAChR (Homo sapiens), the measured Emax is 392

Emax value, target or system human alpha 7-wt nAChR (Homo sapiens), for Cc1ccc(-c2sc(N3C[C@@H](C)O[C@@H](C)C3)nc2CNC(=O)c2ccccc2F)cn1 : 356

Bench note, human alpha 7-wt nAChR (Homo sapiens): entry Cc1cc(-c2sc(N3C[C@@H](C)O[C@@H](C)C3)nc2CNC(=O)c2cccc(F)c2F)cc(C)n1 , its Emax = 422

Let me check: Cc1cc(-c2sc(N3CC(C)OC(C)C3)nc2CNC(=O)C2CCC2)cc(C)n1 (racemic) , system human alpha 7-wt nAChR (Homo sapiens), measured Emax is 783

Reported human alpha 7-wt nAChR (Homo sapiens) Emax for item Cc1cc(-c2sc(N3C[C@@H](C)O[C@@H](C)C3)nc2CNC(=O)c2ccccc2Cl)ccn1 was 491

Emax of Cc1cc(-c2sc(N3C[C@@H](C)O[C@@H](C)C3)nc2CNC(=O)CC2CC2)cc(C2CC2)n1 , assay on human alpha 7-wt nAChR (Homo sapiens), is 923

# Emax measured on human alpha 7-wt nAChR (Homo sapiens) for item Cc1cc(-c2sc(N3CC4CCC(C3)O4)nc2CNC(=O)CC2CC2)cc(C)n1 = 705

Noted Emax for CC(C)C(=O)NCc1nc(N2C[C@@H](C)O[C@@H](C)C2)sc1-c1ccnc(C(F)(F)F)c1 , tested on human alpha 7-wt nAChR (Homo sapiens): 930

Item Cc1cc(-c2sc(N3CCOC(C(F)(F)F)C3)nc2CNC(=O)c2conc2C)cc(C)n1 (stereo not drawn) was tested on human alpha 7-wt nAChR (Homo sapiens); the reported Emax is 819
